# Test Target: T1, human plasma Kallikrein (human, UniProt P03952 20-638)
# T1 construct: also called hPK; human PK
# T1 sequence (P03952 20-638 limits assumed): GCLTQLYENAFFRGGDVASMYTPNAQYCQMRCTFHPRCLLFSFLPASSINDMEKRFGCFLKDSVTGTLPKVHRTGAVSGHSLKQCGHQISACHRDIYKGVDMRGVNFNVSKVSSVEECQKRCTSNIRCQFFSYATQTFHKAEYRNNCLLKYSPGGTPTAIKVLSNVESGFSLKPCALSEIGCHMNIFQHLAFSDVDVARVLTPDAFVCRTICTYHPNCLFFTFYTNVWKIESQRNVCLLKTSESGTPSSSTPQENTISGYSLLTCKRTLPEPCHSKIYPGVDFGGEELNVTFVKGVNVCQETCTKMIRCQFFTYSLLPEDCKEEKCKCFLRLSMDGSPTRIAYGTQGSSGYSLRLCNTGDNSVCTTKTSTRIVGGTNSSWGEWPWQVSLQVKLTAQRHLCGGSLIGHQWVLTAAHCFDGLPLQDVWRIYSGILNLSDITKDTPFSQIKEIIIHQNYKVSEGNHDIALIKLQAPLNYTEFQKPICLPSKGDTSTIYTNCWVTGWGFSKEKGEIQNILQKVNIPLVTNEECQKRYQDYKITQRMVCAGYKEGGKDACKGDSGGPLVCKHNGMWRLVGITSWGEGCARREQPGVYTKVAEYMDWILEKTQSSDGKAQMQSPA
# Assay Protocol: enzyme inhibition
pIC50: −log10 of the molar value. Numbered stars: 1 amine (or outer) side, 2 acyl side, 3 side chain; on linkers, the order of the positions; unused ones are H or OH. Bridge positions count the residues as written; N and C are the ends. Ends that are not written are not given here. TBMB = c1c(C[*:1])cc(C[*:3])cc1C[*:2]

| Binder | pIC50 |
| --- | --- |
| ACSWPARCTHQDLCA (linker 2-8-14 via TBMB; not fully specified (N-terminus, C-terminus)) [06-34-03 (01 + 02)] | 10.09 |
| ACRWPARCMHQDLCA (linker 2-8-14 via TBMB; not fully specified (N-terminus, C-terminus)) [06-34-04] | 10.12 |
| ACRWPARCLHQDLCA (linker 2-8-14 via TBMB; not fully specified (N-terminus, C-terminus)) [06-34-05] | 10.12 |
| ACSWPARCVHQDLCA (linker 2-8-14 via TBMB; not fully specified (N-terminus, C-terminus)) [06-34-01] | 9.82 |
| ACSWPARCLHQDLCA (linker 2-8-14 via TBMB; not fully specified (N-terminus, C-terminus)) [06-34-18 (01 + 05)] | 10.15 |
| ACSWPARCMHQDLCA (linker 2-8-14 via TBMB; not fully specified (N-terminus, C-terminus)) [06-34-17 (01 + 04)] | 10.14 |
| ACRWPARCTHQDLCA (linker 2-8-14 via TBMB; not fully specified (N-terminus, C-terminus)) [06-34-02] | 9.80 |
